# Tested on: A549/ATCC NSCLC
# Method description: NCI-60 one-dose screen, 48 h
# Recorded conditions: 10 µM unless noted
This is part of a sample that, as a whole, favours compounds with a hit. Of some 83,000 tested, about 20% had one in any assay. Active and inactive are the calls of the source. How the source made its calls: active means growth percent below 10; inactive means the rest.
Outcomes: Yes for active, No for inactive

compound="Clc1ccc2c(c1)C(Br)c1cc(Cl)cc(Cl)c1-2 (stereo unspecified)" category_label=No
compound=COc1ccc(NS(=O)(=O)N2CCCCC2)cc1 category_label=No
compound=O=C(Nc1ccccc1S)c1ccccc1 category_label=No
compound=[N-]=[N+]=NCc1ncc(-c2ccc(C(F)(F)F)cc2)c(NC2CCCCCC2)n1 category_label=No
compound=CNNc1ncnc2c1cnn2-c1ccc(S(N)(=O)=O)cc1 category_label=No
compound=CCCCCc1c(C)[nH]c(/C=C2\N=C(c3ccc[nH]3)C=C2Oc2ccc(Cl)cc2)c1C category_label=Yes

Data provenance is PubChem BioAssay (NCI).
